Hey, just so you know, these numbers are from patent US20140045824A1.

Procedure summary: Cocrystal screening by slurry method (Comparative Examples 1-1 to 1-6), powder X-ray diffraction
Type: physicochemical
Set-up: key: A cocrystal was completely formed.; B: A mixture of a cocrystal and the host compound or guest compound was formed.; C: A cocrystal was not formed (a mixture of the host compound and the guest compound was formed)
Condition summary: host theophylline, slurry in tetrahydrofuran, room temperature 7 days
Readout type: Cocrystal formation, Comparative Example 1-3

// below: answered compounds
- Compound: "O=C1NS(=O)(=O)c2ccccc21 [Saccharin]"
  Reported result: "C"
- Compound: "O=C(O)C(=O)O [Oxalic acid]"
  Reported result: "A"
- Compound: "CC(C)C[C@H](N)C(=O)O [L-Leucine]"
  Reported result: "C"
- Compound: "NCC(=O)O [Glycine]"
  Reported result: "C"
- Compound: "O=C(O)CCCC(=O)O [Glutaric acid]"
  Reported result: "C"

Query: Please indicate Cocrystal formation, Comparative Example 1-3 recorded for NC(=O)c1cccnc1 [Nicotinamide]
Response: B

Query: Please indicate Cocrystal formation, Comparative Example 1-3 recorded for O=C(O)c1ccccc1 [Benzoic acid]
Response: C

Query: Please indicate Cocrystal formation, Comparative Example 1-3 recorded for O=C(O)/C=C\C(=O)O [Maleic acid]
Response: C

Query: Please indicate Cocrystal formation, Comparative Example 1-3 recorded for O=S(=O)(O)CCS(=O)(=O)O [Ethanedisulfonic acid]
Response: A

Query: Please indicate Cocrystal formation, Comparative Example 1-3 recorded for C/C=C/C=C/C(=O)O [Sorbic acid]
Response: C

Query: Please indicate Cocrystal formation, Comparative Example 1-3 recorded for N=C(N)NCCC[C@H](N)C(=O)O [L(+)-Arginine]
Response: C

Query: Please indicate Cocrystal formation, Comparative Example 1-3 recorded for O=C(O)CC(O)(CC(=O)O)C(=O)O [Citric acid]
Response: C

Query: Please indicate Cocrystal formation, Comparative Example 1-3 recorded for NC(=O)c1ccccc1 [Benzamide]
Response: C
